# procedure-text: ATG_Oct_MLP_CIS: Attagene CIS-FACTORIAL HepG2 Assay for human Octamer-Binding Transcription Factor (Oct) (AID 2282993)
# condition-context: HepG2 Attagene cis-factorial Oct reporter, mRNA; actives raise or lower the signal
Active and inactive are the calls of the source. Rule for the calls: active = hit-call score of the fitted dose curve at least 0.9, where 1 is the maximum; inactive = score below 0.9.
Returns: one label drawn from True = active, False = inactive

Field: example entries. Status: answers known.
FC(F)(F)C(F)(F)C(F)(F)C(F)(F)C(F)(F)C(F)(F)C(F)(F)CCI = False
O=C(O)C(F)(F)C(F)(F)C(F)(F)C(F)(F)C(F)(F)C(F)(F)C(F)F = False
O=C(O)CCC(F)(F)C(F)(F)C(F)(F)C(F)(F)C(F)(F)C(F)(F)C(F)(F)F = False
CCCCC(CC)COC(=O)c1ccc(N(C)C)cc1 (configuration not stated) = False

// return assay outcome for CO[Si](CCCOCC1CO1)(OC)OC (configuration not stated)
False

// return assay outcome for Cc1cc(C)c(O)c(C(C)(C)C)c1
False

// return assay outcome for CC(C)CC=C(C=O)c1ccccc1
False

// return assay outcome for CCN(CC)c1ccc(C=O)c(O)c1
False

// return assay outcome for Cc1cccc(C)n1
False

// return assay outcome for C=C(C)C(=O)OCC(F)(F)C(F)(F)C(F)(F)C(F)F
False

// return assay outcome for O=C(O)C(F)(F)C(F)(F)C(F)(F)C(=O)O
False

// return assay outcome for O=c1cccc[nH]1
False

// return assay outcome for O=C1OC(=O)c2ccc3c4c(ccc1c24)C(=O)OC3=O
False

// return assay outcome for CCOC(=O)C1CC(=O)C(=C(O)C2CC2)C(=O)C1 (configuration not stated)
False

// return assay outcome for COCCC(=O)OC
False

// return assay outcome for CC(C)CCCC(C)CCO (configuration not stated)
False

// return assay outcome for COc1ccccc1C=O
False

// return assay outcome for CCCCCC/C=C/CCCCCCCC(=O)O
False

----------
# target-of-assay: Sodium channel protein type 1 subunit alpha (Rattus norvegicus)
# procedure-text: NVS_IC_rNaCh_site2: NovaScreen (NVS) Ion Channel Assay for rat Sodium Channel, Site 2 (NaCh) (AID 2283322);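 note: hit means loss of radioligand binding signal relative to DMSO so AC50 marks displacement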
Inconclusive results are not listed. Active and inactive are the calls of the source. Rule for the calls: active = hit-call score of the fitted dose curve at least 0.9, where 1 is the maximum; inconclusive = response in the unintended direction; inactive = score below 0.9.
observed-property: AC50

For orientation, consider the following solved cases.
c1ccc(C[P+](c2ccccc2)(c2ccccc2)c2ccccc2)cc1 = 5.54 µM (active)
CC(C)(C)c1cc(CCC(=O)NCCCCCCNC(=O)CCc2cc(C(C)(C)C)c(O)c(C(C)(C)C)c2)cc(C(C)(C)C)c1O = inactive
O=C1OC(=O)c2ccc3c4c(ccc1c24)C(=O)OC3=O = inactive
O=C=NCc1cccc(CN=C=O)c1 = inactive

Checklist item: AC50 tested on Sodium channel protein type 1 subunit alpha (Rattus norvegicus), entry Oc1ccc(C2(c3ccc(O)c(C4CCCCC4)c3)CCCCC2)cc1C1CCCCC1 , value?
inactive

----------
# procedure-text: ATG_NRF2_ARE_CIS: Attagene CIS-FACTORIAL HepG2 Assay for human Nuclear Factor Erythroid 2 Related Factor 2 (NFR2) response to Antioxidant Response Elements (ARE) (AID 2282992)
# condition-context: HepG2 Attagene ARE/NRF2 reporter, transcription factor activity; actives raise or lower the signal
# Experimental: ATG_CIS is a cell-based, multiplexed-readout assay that uses HepG2, a human liver cell line, with measurements taken at 24 hours after chemical dosing in a 24-well plate.ATG_NRF2_ARE_CIS is one of 52 assay component(s) measured or calculated from the ATG_CIS assay. […] This assay endpoint, ATG_NRF2_ARE_CIS, was analyzed with bidirectional fitting relative to DMSO as the negative control and baseline of activity. […]
Activity calls are given as the source filed them. The calls were made as follows: active = hit-call score of the fitted dose curve at least 0.9, where 1 is the maximum; inactive = score below 0.9.
Returns: one label drawn from active, inactive

Field: example entries. Status: answers known.
O=S(=O)(O)c1ccc(Cl)cc1 = inactive
NC(=O)C(F)(F)C(F)(F)C(F)(F)F = inactive
Oc1ccc(C2(c3ccc(O)c(C4CCCCC4)c3)CCCCC2)cc1C1CCCCC1 = active

// return assay outcome for CCCCOC(=O)[C@H](C)O
inactive

// return assay outcome for Cc1cccc(C)n1
inactive

// return assay outcome for CSc1ccc(Cl)cc1
inactive

// return assay outcome for CCC/C=C/CO
inactive

// return assay outcome for CCC(Cc1c(I)cc(I)c(N)c1I)C(=O)O (centres undefined)
active

// return assay outcome for CCCCCCCCn1sc(Cl)c(Cl)c1=O
active
